molecular target: HA of influenza B virus B/Hong Kong/5/72 (influenza B virus B/Hong Kong/5/72); assay: cell-based or functional assay
Observation type: Neutralization (Ave IC50 ug/ml) (µg/mL)
Give the number; µg/mL is assumed, so skip it.

Exercise: Recall and state the measured Neutralization (Ave IC50 ug/ml) for FBC-39 (antibody, V domains shown) VH: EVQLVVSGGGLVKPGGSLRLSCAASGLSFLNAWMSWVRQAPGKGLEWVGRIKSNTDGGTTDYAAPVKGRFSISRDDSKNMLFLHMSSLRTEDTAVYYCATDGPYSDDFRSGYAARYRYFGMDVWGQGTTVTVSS VL: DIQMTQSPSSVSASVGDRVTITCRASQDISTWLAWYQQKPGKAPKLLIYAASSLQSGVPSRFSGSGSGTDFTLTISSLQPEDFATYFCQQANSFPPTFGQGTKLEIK .
Solution: 0.026
